- assay_target: human SSTR3 (Homo sapiens, UniProt P32745)
- Construct: expressed in transfected cells; host or cells: CHO-K1 cells and CCL39 cells
- Sequence (P32745 whole entry): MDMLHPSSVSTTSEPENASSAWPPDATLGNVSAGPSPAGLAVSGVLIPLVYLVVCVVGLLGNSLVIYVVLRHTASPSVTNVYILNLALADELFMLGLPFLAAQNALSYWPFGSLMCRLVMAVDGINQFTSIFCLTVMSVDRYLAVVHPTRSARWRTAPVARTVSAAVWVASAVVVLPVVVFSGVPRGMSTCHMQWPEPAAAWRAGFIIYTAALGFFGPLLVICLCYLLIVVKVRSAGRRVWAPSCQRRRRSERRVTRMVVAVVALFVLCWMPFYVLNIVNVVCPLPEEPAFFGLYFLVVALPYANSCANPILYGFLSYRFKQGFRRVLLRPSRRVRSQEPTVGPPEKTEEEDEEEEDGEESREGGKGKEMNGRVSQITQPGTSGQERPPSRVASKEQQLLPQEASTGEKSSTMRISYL
- assay_name: Displacement of 125I-[Leu8,D-Trp22,Tyr25]-somatostatin-28 from cloned SSTR3 (receptor autoradiography on membrane pellets)
- Assay type: binding
- assay_context: iodinated SRIF-28 ligand, cloned human receptor; read-out: IC50 at cloned human SSTR3
# maps each entry to its IC50

For orientation, consider the following solved cases.
>  <compound>
C[C@@H](O)[C@@H]1NC(=O)[C@H](CCCCN)NC(=O)[C@@H](N(C)C(=O)c2ccc3ccccc3c2)NC(=O)[C@H](Cc2ccc(O)cc2)NC(=O)[C@H](Cc2ccccc2)NC(=O)[C@@H](N)CSSC[C@@H](C(=O)O)NC(=O)[C@H](Cc2ccccc2)NC1=O [Peptide No. 2]

>  <IC50>
~70 nM

$$$$
>  <compound>
C[C@@H](O)[C@@H]1NC(=O)[C@H](CCCCN)NC(=O)[C@@H](N(C)C(=O)c2ccc3ccccc3c2)NC(=O)[C@H](Cc2ccc(O)cc2)NC(=O)[C@H](Cc2ccccc2)NC(=O)[C@H](N)CSSC[C@@H](C(=O)O)NC(=O)[C@H](Cc2ccccc2)NC1=O [Peptide No. 2A]

>  <IC50>
~39 nM

$$$$
>  <compound>
C[C@@H](O)[C@@H]1NC(=O)[C@H](CCCCN)NC(=O)[C@@H](Cc2ccc3ccccc3c2)NC(=O)[C@H](N(C)C(=O)c2ccccc2)NC(=O)[C@H](Cc2ccccc2)NC(=O)[C@@H](N)CSSC[C@@H](C(=O)O)NC(=O)[C@H](Cc2ccccc2)NC1=O [Peptide No. 3]

>  <IC50>
~80 nM

$$$$

Let us examine a further case.
Bench note: what IC50 did C[C@@H](O)[C@@H]1NC(=O)[C@H](CCCCN)NC(=O)[C@@H](N(C)C(=O)c2ccc3ccccc3c2)NC(=O)[C@H](Cc2ccccc2)NC(=O)[C@H](Cc2ccccc2)NC(=O)[C@@H](N)CSSC[C@@H](C(=O)O)NC(=O)[C@H](Cc2ccccc2)NC1=O [Peptide No. 2B] show? ~70 nM

Hello, the source for this data is patent US6579967B1, in case you need it.
